target: Protein cereblon/Retinal rod rhodopsin-sensitive cGMP 3',5'-cyclic phosphodiesterase subunit delta (Homo sapiens, UniProt O43924+Q96SW2); assay: Protac activity at CRBN/PDE6D in human MOLT-4 cells assessed as induction of PDE6D degradation at 1 microM measured after 4 hrs by Immunoblotting analysis; format: cell-based
Sequence (O43924 whole entry, looked up): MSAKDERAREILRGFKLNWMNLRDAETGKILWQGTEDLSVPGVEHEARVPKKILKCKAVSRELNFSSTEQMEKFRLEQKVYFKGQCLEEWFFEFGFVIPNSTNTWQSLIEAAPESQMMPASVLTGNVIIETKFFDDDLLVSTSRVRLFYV
Sequence (Q96SW2 whole entry, looked up): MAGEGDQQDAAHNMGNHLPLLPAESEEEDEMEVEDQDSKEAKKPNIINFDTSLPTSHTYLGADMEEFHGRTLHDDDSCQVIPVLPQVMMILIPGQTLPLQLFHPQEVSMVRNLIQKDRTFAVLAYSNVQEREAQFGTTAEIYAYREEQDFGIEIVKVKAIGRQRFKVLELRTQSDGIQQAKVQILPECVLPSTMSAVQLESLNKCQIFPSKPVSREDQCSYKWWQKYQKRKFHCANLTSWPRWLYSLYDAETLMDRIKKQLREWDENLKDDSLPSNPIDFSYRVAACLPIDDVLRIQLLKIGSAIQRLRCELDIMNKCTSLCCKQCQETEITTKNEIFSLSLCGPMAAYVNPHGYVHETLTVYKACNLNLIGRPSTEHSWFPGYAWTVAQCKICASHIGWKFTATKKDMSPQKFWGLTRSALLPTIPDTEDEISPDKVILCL
The source made the active and inactive calls. The rule behind the calls is not given here.
// classify into 1 for active, 0 for inactive

q: Call for entry CSc1cscc1-c1cn(C2CCC(=O)NC2=O)nn1 (centres undefined) :
a: 1

q: Also check O=C1CCC(n2cc(-c3ccsc3)nn2)C(=O)N1 (centres undefined)
a: 1

q: Also check COc1c(-c2cn(C3CCC(=O)NC3=O)nn2)csc1C(=O)N1CCCC1 (centres undefined)
a: 0

q: Also check COc1c(-c2cn(C3CCC(=O)NC3=O)nn2)csc1C(=O)NC1CCCC1 (centres undefined)
a: 0
